Target: BRAF-MEK1 (Oryctolagus cuniculus, UniProt P29678, S298N/S299K/Y300F)
Construct: human BRAF (residues 432-726; Uniprot ID: P15056); rabbit MEK1 (residues 35-393; Uniprot ID: P29678); hexahistidine tag with TEV-cleavage site (N)
Sequence (P29678 35-393 S298N/S299K/Y300F): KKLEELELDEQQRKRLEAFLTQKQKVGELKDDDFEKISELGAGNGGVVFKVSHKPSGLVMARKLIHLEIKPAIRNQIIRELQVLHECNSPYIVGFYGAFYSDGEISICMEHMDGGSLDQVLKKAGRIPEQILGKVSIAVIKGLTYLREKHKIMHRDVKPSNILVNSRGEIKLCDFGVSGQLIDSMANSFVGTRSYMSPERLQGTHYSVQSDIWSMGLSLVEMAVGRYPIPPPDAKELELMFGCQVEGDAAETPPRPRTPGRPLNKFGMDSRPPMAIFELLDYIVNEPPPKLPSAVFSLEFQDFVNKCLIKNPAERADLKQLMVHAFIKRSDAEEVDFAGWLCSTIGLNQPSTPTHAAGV
Experiment: Bio-layer interferometry (BLI), BRAF-MEK1
Details: read-out: dissociation constant (KD), MEK1-BRAF
Protocol: BLI measurements were performed using an Octet Red96 (Forte Bio, Inc.) system. […] Association was measured for 10 or 15 minutes, following a dissociation phase in buffer of 15 minutes. […] All experiments were performed at least three independent times, with raw data processed and analyzed using global fit binding models in Fortebio software to derive KD (M), Kon(1/M·s), and Kdis (1/s) values. […]
measuredQuantity: pKd
// pKd here means minus log10 of the molar concentration (mol/L)

Reported pKd ( "CC(=O)Nc1cccc(-n2c(=O)n(C3CC3)c(=O)c3c(Nc4ccc(I)cc4F)n(C)c(=O)c(C)c32)c1" ) = 6.66

---

Target: KSR1-MEK1 (UniProt P29678+Q8IVT5, S298N/S299K/Y300F)
Construct: human KSR1 (residues 591-899; Uniprot ID:Q8IVT5); rabbit MEK1 (residues 35-393; Uniprot ID: P29678); hexahistidine tag with TEV-cleavage site (N)
Sequence (Q8IVT5 591-899, one chain of several): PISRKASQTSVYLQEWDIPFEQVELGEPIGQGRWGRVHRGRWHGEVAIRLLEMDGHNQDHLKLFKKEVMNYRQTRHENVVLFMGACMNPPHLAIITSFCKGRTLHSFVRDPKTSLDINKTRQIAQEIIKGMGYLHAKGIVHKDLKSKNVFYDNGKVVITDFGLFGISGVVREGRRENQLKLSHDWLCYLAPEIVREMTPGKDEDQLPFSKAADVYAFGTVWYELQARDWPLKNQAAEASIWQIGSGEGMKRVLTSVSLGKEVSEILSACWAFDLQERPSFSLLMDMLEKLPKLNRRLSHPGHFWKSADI
Assay: Bio-layer interferometry (BLI), KSR1-MEK1
Settings: read-out: dissociation constant (KD), KSR1-MEK1
measuredQuantity: Kd (nM)
Return type: number; implicit unit nM.

Reported Kd ( "CC(=O)Nc1cccc(-n2c(=O)n(C3CC3)c(=O)c3c(Nc4ccc(I)cc4F)n(C)c(=O)c(C)c32)c1" ) = 63.9
